assay: melting temperature; fluorescence melt of hairpins on a sequencing array, two-state fit, raised by 9.35 °C to match UV melts
assay_conditions: sodium 0.088 M
Lab note: anything with Tm below 50 °C is marked condition met; values at 50 °C or higher are marked condition not met.

In [3]: df
Out[3]:
                         monomer_sequence     discrete_label
 0      GATCGTCTTCACGATC ((((((....))))))  condition not met
 1  GACCCGGGAAACCGGATC ((.((((....)))).))      condition met
 2              GCGAATCCTCGC ((((....))))      condition met
 3  GCCTCCCGAAAGGGTGGC (((.(((....))).)))  condition not met
 4  GCAGGCGAAAGCCCATGC ((((((....)))..)))      condition met
 5      GATCTGGATACAGATC ((((((....))))))  condition not met
 6  GTGGTCGAAAGACACCAC ((((((....)))..)))      condition met
 7  GATGATCCGAAAGGAATC (((..(((....))))))      condition met
 8      GAGTTAGAAATAACTC ((((((....))))))      condition met
 9                GCGTAAGACGC ((((...))))  condition not met
10              GCGTAGTTACGC ((((....))))  condition not met
11    GCCTTGCGAAAGCAGGC (((.(((....))))))  condition not met
